# Test system: Vero E6 infected with SARS-CoV-2
# ASSAY NOTES: inhibition of SARS-CoV-2 cytopathic effect; higher = more antiviral protection, active = above 15
# RECORDED CONDITIONS: 8.33 nM; 48 h
READOUT KIND: inhibition of SARS-CoV-2 cytopathic effect (%)
// note: answer is a bare numeric in %

Look up inhibition of SARS-CoV-2 cytopathic effect for this molecule: Cc1nc(C)c(-c2ccc(C3CCC(CC(=O)O)CC3)cc2)nc1C(N)=O (stereo not drawn)
2.17

Which inhibition of SARS-CoV-2 cytopathic effect value is on record for Cc1c(Cl)c(C)[n+]([O-])c(Cl)c1-c1noc(-c2cc(O)c(O)c([N+](=O)[O-])c2)n1 [opicapone] ?
1.95

Consider the molecule CN(C)c1ccc(C(=C2C=CC(=[N+](C)C)C=C2)c2ccc(N(C)C)cc2)cc1 [crystal-violet] and give its measured inhibition of SARS-CoV-2 cytopathic effect.
1.49

Could you tell me which inhibition of SARS-CoV-2 cytopathic effect is on file for CC12CCC(C(=O)N(CCCCN3CCN(c4ccccn4)CC3)C1=O)C2(C)C (stereo not drawn) [piricapiron] ?
-0.34

What value of measured inhibition of SARS-CoV-2 cytopathic effect is listed for `CCC[C@H](NC(=O)/C(C#N)=C/c1cccc(Br)n1)c1ccccc1` ?
1.78

Fill in the blank: the reported inhibition of SARS-CoV-2 cytopathic effect of `c1ccc(-c2ccc(CNc3nc(-c4ccccn4)nnc3-c3ccccc3)cc2)cc1` is ____.
0.74

inhibition of SARS-CoV-2 cytopathic effect for Cc1cc2c(F)c(Oc3ncnn4cc(OC[C@@H](C)OC(=O)[C@H](C)N)c(C)c34)ccc2[nH]1 [brivanib-alaninate] ?
4.65

For the molecule shown here, C[C@@H]1CN(Cc2ccc(F)cc2)[C@@H](C)CN1C(=O)c1cc2c(C(=O)C(=O)N(C)C)cn(C)c2cc1Cl [talmapimod] , give the reported inhibition of SARS-CoV-2 cytopathic effect.
-0.66

So what does the record say about inhibition of SARS-CoV-2 cytopathic effect for `Cc1[nH]c2ccc(Cl)cc2c1C1=CCNCC1` ?
2.01

Bench note: what inhibition of SARS-CoV-2 cytopathic effect did `Cc1cc(NCCO)nc(-c2ccc(Br)cc2)n1` show?
-1.79

# get_value(readout='inhibition of SARS-CoV-2 cytopathic effect', item= `O=C(O)c1ccc(S(=O)(=O)N(Cc2ccc(OC(F)(F)F)cc2)c2ncc(C(F)(F)F)cc2Cl)cc1` )
-0.05

inhibition of SARS-CoV-2 cytopathic effect lookup needed for CCCNC(=O)NS(=O)(=O)c1ccc(Cl)cc1 [chlorpropamide] , thanks.
0.48

What value of inhibition of SARS-CoV-2 cytopathic effect has been recorded for this entry: c1ccc2[nH]c(-c3cscn3)nc2c1 [tiabendazole]
1.24

Looking for the measured inhibition of SARS-CoV-2 cytopathic effect of O=C(c1ccc(F)cc1)C1CCN(CCn2c(=S)[nH]c3ccccc3c2=O)CC1 [altanserin] , can you help?
0.82

Recorded inhibition of SARS-CoV-2 cytopathic effect for COc1ccccc1OCCNCC(O)COc1cccc2[nH]c3ccccc3c12 (stereo not drawn) [carvedilol] , please?
3.88

// query inhibition of SARS-CoV-2 cytopathic effect value for entry NS(=O)(=O)c1cc2c(cc1Cl)N=CNS2(=O)=O [chlorothiazide]
0

inhibition of SARS-CoV-2 cytopathic effect lookup needed for C[N+]1(C)[C@@H]2C[C@@H](OC(=O)[C@H](CO)c3ccccc3)C[C@H]1[C@@H]1O[C@@H]12 [methscopolamine] , thanks.
-0.27

Name the reported inhibition of SARS-CoV-2 cytopathic effect value associated with the molecule C[C@@H](O[C@H]1OCCN(Cc2nn(P(=O)(O)O)c(=O)[nH]2)[C@H]1c1ccc(F)cc1)c1cc(C(F)(F)F)cc(C(F)(F)F)c1 [fosaprepitant-dimeglumine]
3.23

Data origin, for the record: the supplement of paper PMC13380429
